- assay-info: Inhibition of Aspergillus niger amyloglucosidase assessed as reduction of p-nitrophenol release using p-nitrophenyl-glycoside as substrate by spectrophotometric analysis
Give measured IC50 for each item. Keep answers brief.

Could you please provide reported IC50 for Cc1ccc(CCCCCCC[C@H]2N[C@H](CO)[C@@H](O)[C@@H]2O)cc1.Cl ? Thanks!
33 µM

Could you please provide reported IC50 for OC[C@H]1N[C@H]([C@@H](O)CCCCCCc2ccc(F)c(F)c2)[C@@H](O)[C@@H]1O ? Thanks!
59 µM

Could you please provide reported IC50 for Cl.OC[C@H]1N[C@H]([C@H](O)CCCCCCc2ccc(F)cc2)[C@@H](O)[C@@H]1O ? Thanks!
30 µM

Could you please provide reported IC50 for Cc1ccc(CCCCCC[C@@H](O)[C@H]2N[C@H](CO)[C@@H](O)[C@@H]2O)cc1 ? Thanks!
23 µM

Could you please provide reported IC50 for CC(C)(C)c1ccc(CCCCCC[C@H](O)[C@H]2N[C@H](CO)[C@@H](O)[C@@H]2O)cc1 ? Thanks!
63 µM

Could you please provide reported IC50 for OC[C@H]1N[C@H]([C@H](O)CCCCCCc2ccc(Cl)cc2)[C@@H](O)[C@@H]1O ? Thanks!
32 µM

* * *

Give measured inhibition for each item. Keep answers brief.
- tgt: Alpha-galactosidase (Coffea arabica) (UniProt Q42656)
- Sequence (Q42656 16-378 limits assumed): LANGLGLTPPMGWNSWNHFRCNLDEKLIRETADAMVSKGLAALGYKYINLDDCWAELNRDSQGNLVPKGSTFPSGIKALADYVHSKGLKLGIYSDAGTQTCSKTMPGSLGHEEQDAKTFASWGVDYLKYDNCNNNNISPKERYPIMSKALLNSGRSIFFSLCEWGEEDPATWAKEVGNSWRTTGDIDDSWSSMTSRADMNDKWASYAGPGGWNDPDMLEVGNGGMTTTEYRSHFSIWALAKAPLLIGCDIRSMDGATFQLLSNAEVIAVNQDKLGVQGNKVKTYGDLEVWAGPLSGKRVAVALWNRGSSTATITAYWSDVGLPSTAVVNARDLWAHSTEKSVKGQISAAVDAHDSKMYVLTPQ
- assay-info: Inhibition of coffee beans alpha-galactosidase assessed as reduction of p-nitrophenol release using p-nitrophenyl glycoside as substrate at 1000 uM by spectrophotometric analysis relative to control
Returns: string containing the number followed by the unit.

Could you please provide reported inhibition for OC[C@H]1N[C@H](CCCCCCCc2ccc(F)c(F)c2F)[C@@H](O)[C@@H]1O ? Thanks!
0.7%

Could you please provide reported inhibition for CC(C)(C)c1ccc(CCCCCC[C@@H](O)[C@@H]2N[C@@H](CO)[C@H](O)[C@H]2O)cc1 ? Thanks!
1%

Could you please provide reported inhibition for OC[C@H]1N[C@H]([C@@H](O)CCCCCCc2ccc(F)c(F)c2)[C@@H](O)[C@@H]1O ? Thanks!
0%

Could you please provide reported inhibition for Cl.OC[C@H]1N[C@H](CCCCCCCc2ccc(F)cc2)[C@@H](O)[C@@H]1O ? Thanks!
20.5%

Could you please provide reported inhibition for Cl.OC[C@H]1N[C@H](CCCCCCCc2cccc(F)c2)[C@@H](O)[C@@H]1O ? Thanks!
1.1%

Could you please provide reported inhibition for OC[C@@H]1N[C@@H]([C@H](O)CCCCCCc2ccc(Cl)cc2)[C@H](O)[C@H]1O ? Thanks!
1.3%

* * *

Give measured pIC50 for each item. Keep answers brief.
- tgt: Beta-glucuronidase (Escherichia coli (strain K12))
- Sequence (P05804 whole entry): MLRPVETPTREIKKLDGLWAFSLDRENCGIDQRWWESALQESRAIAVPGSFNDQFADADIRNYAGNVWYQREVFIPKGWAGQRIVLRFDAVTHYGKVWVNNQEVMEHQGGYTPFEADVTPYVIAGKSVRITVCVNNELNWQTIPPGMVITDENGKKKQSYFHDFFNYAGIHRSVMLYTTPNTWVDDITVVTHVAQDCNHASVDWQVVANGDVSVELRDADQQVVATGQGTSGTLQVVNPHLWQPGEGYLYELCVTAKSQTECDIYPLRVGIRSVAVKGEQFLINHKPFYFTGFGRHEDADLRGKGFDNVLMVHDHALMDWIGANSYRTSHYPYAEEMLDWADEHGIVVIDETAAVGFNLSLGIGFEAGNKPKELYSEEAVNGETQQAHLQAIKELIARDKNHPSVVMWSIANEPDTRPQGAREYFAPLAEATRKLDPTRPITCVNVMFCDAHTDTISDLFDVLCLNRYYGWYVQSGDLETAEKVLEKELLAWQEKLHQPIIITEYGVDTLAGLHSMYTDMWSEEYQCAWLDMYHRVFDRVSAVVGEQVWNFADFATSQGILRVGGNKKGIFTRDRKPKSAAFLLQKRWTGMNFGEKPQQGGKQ
- assay-info: Inhibition of Escherichia coli beta-glucuronidase assessed as reduction of p-nitrophenol release using p-nitrophenyl-glycoside as substrate by spectrophotometric analysis
The read-out pIC50 is expressed as -log10 of concentration in moles per litre.

Report measured pIC50 on Beta-glucuronidase (Escherichia coli (strain K12)); entry: OC[C@H]1N[C@H]([C@@H](O)CCCCCCc2ccc(F)c(F)c2)[C@@H](O)[C@@H]1O
4.60

Report measured pIC50 on Beta-glucuronidase (Escherichia coli (strain K12)); entry: CC(C)(C)c1ccc(CCCCCCC[C@H]2N[C@H](CO)[C@@H](O)[C@@H]2O)cc1.Cl
5.11

Report measured pIC50 on Beta-glucuronidase (Escherichia coli (strain K12)); entry: OC[C@H]1N[C@H](CCCCCCCc2ccccc2)[C@@H](O)[C@H]1O
4.12

Report measured pIC50 on Beta-glucuronidase (Escherichia coli (strain K12)); entry: O=C1CCCC=C1CCCCCCC[C@H]1N[C@H](CO)[C@@H](O)[C@@H]1O
5.48

Report measured pIC50 on Beta-glucuronidase (Escherichia coli (strain K12)); entry: OC[C@H]1N[C@H](CCCCCCCc2ccccc2)[C@@H](O)[C@@H]1O
4.01

Report measured pIC50 on Beta-glucuronidase (Escherichia coli (strain K12)); entry: CC(C)(C)c1ccc(CCCCCC[C@@H](O)[C@H]2N[C@H](CO)[C@@H](O)[C@@H]2O)cc1.Cl
5.54

Report measured pIC50 on Beta-glucuronidase (Escherichia coli (strain K12)); entry: Cl.OC[C@H]1N[C@H](CCCCCCCc2ccc(F)cc2)[C@@H](O)[C@@H]1O
4.46

Report measured pIC50 on Beta-glucuronidase (Escherichia coli (strain K12)); entry: OC[C@H]1N[C@H]([C@H](O)CCCCCCc2ccc(Cl)cc2)[C@@H](O)[C@@H]1O
4.39

Report measured pIC50 on Beta-glucuronidase (Escherichia coli (strain K12)); entry: OC[C@H]1N[C@H]([C@@H](O)CCCCCCc2ccccc2)[C@@H](O)[C@@H]1O
4.37

Report measured pIC50 on Beta-glucuronidase (Escherichia coli (strain K12)); entry: Cl.OC[C@@H]1N[C@@H](CCCCCCCc2ccccc2)[C@H](O)[C@H]1O
3.88

Report measured pIC50 on Beta-glucuronidase (Escherichia coli (strain K12)); entry: Cc1ccc(CCCCCC[C@@H](O)[C@H]2N[C@H](CO)[C@@H](O)[C@@H]2O)cc1
4.89

Report measured pIC50 on Beta-glucuronidase (Escherichia coli (strain K12)); entry: Cc1ccc(CCCCCCC[C@H]2N[C@H](CO)[C@@H](O)[C@@H]2O)cc1.Cl
4.38

Report measured pIC50 on Beta-glucuronidase (Escherichia coli (strain K12)); entry: OC[C@H]1N[C@H]([C@@H](O)CCCCCCc2ccc(F)cc2)[C@@H](O)[C@@H]1O
4.21

Report measured pIC50 on Beta-glucuronidase (Escherichia coli (strain K12)); entry: Cl.OC[C@H]1N[C@H]([C@@H](O)CCCCCCc2ccc(Cl)cc2)[C@@H](O)[C@@H]1O
4.89

Report measured pIC50 on Beta-glucuronidase (Escherichia coli (strain K12)); entry: Cl.OC[C@H]1N[C@H]([C@H](O)CCCCCCc2ccc(F)c(F)c2)[C@@H](O)[C@@H]1O
4.68

Report measured pIC50 on Beta-glucuronidase (Escherichia coli (strain K12)); entry: CC(C)(C)c1ccc(CCCCCC[C@H](O)[C@H]2N[C@H](CO)[C@@H](O)[C@@H]2O)cc1
4.64

Report measured pIC50 on Beta-glucuronidase (Escherichia coli (strain K12)); entry: Cl.OC[C@H]1N[C@H]([C@H](O)CCCCCCc2ccc(F)cc2)[C@@H](O)[C@@H]1O
4.44

Report measured pIC50 on Beta-glucuronidase (Escherichia coli (strain K12)); entry: Cl.OC[C@@H]1N[C@@H]([C@@H](O)CCCCCCc2ccc(F)c(F)c2)[C@H](O)[C@H]1O
4.16
